Assign GI50 to each entry below.
Test system: HT-29
Assay: NCI tumour cell line growth inhibition, 48 h
Active and inactive are the calls of the source. Cut-off read from the data, not from the text of the source: active = GI50 up to about 1.1 µM and inactive = higher.

{"columns": ["MOLECULE", "ENDPOINT RESULT"],
 "data": [
  ["CC[C@@]1(O)C(=O)OCc2c1cc1n(c2=O)Cc2c-1nc1ccccc1c2/C=N\\NC(=O)C(N)=O", "4.36 µM (inactive)"],
  ["COc1ccc2c(c1)CCC(CN1CCN(CCOC(c3ccc(F)cc3)c3ccc(F)cc3)CC1)=C2", "4.53 µM (inactive)"],
  ["NC(=O)OCC1=C(COC(N)=O)C(=O)c2c(O)ccc(O)c2C1=O", "> 100 µM (inactive)"],
  ["COC(=O)C1C2CCCN2OC1(C)CO (stereo not drawn)", "> 100 µM (inactive)"],
  ["COC1CCC(OS(C)(=O)=O)CO1 (stereo not drawn)", "> 100 µM (inactive)"]
]}

// each listed molecule needs a value for GI50
1. C=CC[C@H]1C[C@@]2(C)OC[C@H](C(C)C)N2C1=O
2. CCN(CC)CCCOc1cc2c(cc1OC)C(=O)N1CCC[C@H]1C=N2
3. CC1CN=C(N(C(=O)Nc2ccc(Cl)c(Cl)c2)c2ccccc2)S1 (stereo not drawn)
4. C[N+](C)(N)c1nc(N)c(C#N)c(C#N)c1C#N
5. C/C(CC1C2CCCC1C2)=N\NC(N)=O (stereo not drawn)

Ans:
1: > 100 µM (inactive); 2: 17.8 µM (inactive); 3: 34.8 µM (inactive); 4: > 10 µM (inactive); 5: > 100 µM (inactive)

// each listed molecule needs a value for GI50
1. O=C(O)c1ccc(S(=O)(=O)c2ccccc2[N+](=O)[O-])cc1
2. COc1ccc2c(c1)C(=O)C1(C2)[C@H](c2ccccc2)C2C(=O)c3cc(OC)ccc3C2[C@H]1c1ccccc1 (stereo partly drawn)
3. CC1C=CC(=O)C(n2cc(F)c(=O)[nH]c2=O)O1 (stereo not drawn)

Ans:
1. > 10 µM (inactive)
2. > 100 µM (inactive)
3. 18.2 µM (inactive)

###

System: A549
Experiment: NCI tumour cell line growth inhibition, 48 h
Activity calls are given as the source filed them. No stated cut-off is given here; in the data, active = GI50 up to about 1.1 µM and inactive = higher.
Assign GI50 to each entry below.

{"columns": ["SMILES", "GI50"],
 "data": [
  ["C[N+](C)(N)c1nc(N)c(C#N)c(C#N)c1C#N", "> 10 µM (inactive)"]
]}

// each listed compound needs a value for GI50
1. [N-]=[N+]=NCc1cccc(Nc2cc(=O)[nH]c(=O)[nH]2)c1
2. Cc1cccc(Nc2cn(COCc3ccccc3)c(=O)[nH]c2=O)c1
3. Cc1cccc2c(N)c3cccc(C(=O)NCC[N+](C)(C)Cc4ccccc4[N+](=O)[O-])c3nc12

Ans:
> 100 µM (inactive)
> 100 µM (inactive)
2.24 µM (inactive)

Reported GI50 of N=S(c1ccccc1[N+](=O)[O-])c1ccccc1[N+](=O)[O-] : 6.67 µM (inactive)

###

Tested on: HL-60
Test: NCI tumour cell line growth inhibition, 48 h
Active and inactive are the calls of the source. Cut-off read from the data, not from the text of the source: active = GI50 up to about 1.1 µM and inactive = higher.
METRIC: GI50

Solved cases (5 shown):
{"columns": ["MOLECULE", "GI50"],
 "data": [
  ["COc1ccc(-c2coc3cc(O)cc(O)c3c2=O)cc1", "> 10 µM (inactive)"],
  ["COc1cccc2c(SCC(=O)Nc3ccccc3-c3ccccc3NC(=O)CSc3c4ccccc4nc4c(OC)cccc34)c3ccccc3nc12", "9.93 µM (inactive)"],
  ["OCCN1CCN2C=C(C3CCCC4N(CCO)CCN34)CCC21 (stereo not given)", "5.28 µM (inactive)"],
  ["CC1C/C(=C\\c2ccc(O)c(O)c2)C(=O)/C(=C/c2ccc(O)c(O)c2)C1 (stereo not given)", "4.93 µM (inactive)"],
  ["C=CCn1c(=S)sc2c(O)ncnc21", "> 100 µM (inactive)"]
]}

// each listed molecule needs a value for GI50
1. Cc1ccc(C)c(NC(=O)CC/C(=N\NC(=O)C(N)=O)C(C)C(=O)c2ccc(O)cc2)c1 (stereo not given)
2. CSc1c(C#N)c(N)nc2c(/N=N\c3ccc(Cl)cc3)c(N)nn12
3. Nc1nc2c(ncn2C2OC(CO)C(O)C2O)c(=O)o1 (stereo not given)
4. CCN(CCN(CC)C(=O)NC)C(=O)NC
5. Cc1cc(C(C)(C)C)cc(Cc2cc(C(C)(C)C)cc(Cc3cc(C(C)(C)C)cc(C)c3O)c2O)c1O

Ans:
1. > 100 µM (inactive)
2. 2.31 µM (inactive)
3. > 45.1 µM (inactive)
4. > 100 µM (inactive)
5. 3.71 µM (inactive)

Every entry's value here was drawn from ChEMBL document CHEMBL1201862.
